System: HOP-62 (Lung Adenocarcinoma)
Assay Overview: combination Emax (second highest fraction inhibited in the dose matrix, 72 h); higher = more inhibition; extreme values may be limits of the assay
Measured Quantity: combination Emax
Form rule: numeric answer, no unit written next to it.

- Compound: "CC1(C)CCC(CN2CCN(c3ccc(C(=O)NS(=O)(=O)c4ccc(NCC5CCOCC5)c([N+](=O)[O-])c4)c(Oc4cnc5[nH]ccc5c4)c3)CC2)=C(c2ccc(Cl)cc2)C1 [Venetoclax] + C1CN(CCC1(C(=O)N[C@@H](CCO)C2=CC=C(C=C2)Cl)N)C3=NC=NC4=C3C=CN4 [Capivasertib] (first compound max 1 µM, 7x7, partner max 3 µM)"
  combination Emax: 0.14
- Compound: "C=CCn1c(=O)c2cnc(Nc3ccc(N4CCN(C)CC4)cc3)nc2n1-c1cccc(C(C)(C)O)n1 [AZD1775] + C1CN(CCC1(C(=O)N[C@@H](CCO)C2=CC=C(C=C2)Cl)N)C3=NC=NC4=C3C=CN4 [Capivasertib] (first compound max 3 µM, partner max 3 µM)"
  combination Emax: 0.428

Turning now to a further record.
Input line: Could you tell me which combination Emax is on file for CCc1c2c(nc3ccc(O)cc13)-c1cc3c(c(=O)n1C2)COC(=O)[C@]3(O)CC [SN-38] + CN(C)CCCOc1ccc(-c2ccc3ncc4c(c3c2)n(C2CCOCC2)c(=O)n4C)cn1 [AZD0156] (first compound max 0.3 µM, 7x7, partner max 1 µM) ?
Output line: 0.664
